B1: C22orf15 (parent)
chain: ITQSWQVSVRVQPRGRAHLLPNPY

variants of: B1; assay: protein stability index of a GFP-peptide fusion (GPS, HEK-293T) (PSI 1-6); higher = more stable; details: c terminus: a fixed tail appended;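 note: lentivirally expressed fusions sorted by FACS into six bins by GFP to DsRed ratio, PSI derived from sequencing read proportions per bin multiplied by bin number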
REPORTED ENDPOINT: protein stability index
Just the number, please.

Would you please look over these solved cases?
{"SEQUENCE CODE": "ITQSWQVSVRVQPRGRAHLLQNPY [P21Q]", "protein stability index": 1.52}
{"SEQUENCE CODE": "ITQSWQVSVAVQPRGRAHLLPNPY [R10A]", "protein stability index": 1.83}
{"SEQUENCE CODE": "ITQSWQVSVNVQPRGRAHLLPNPY [R10N]", "protein stability index": 2.63}
{"SEQUENCE CODE": "ITQSWQVSVRVQPRGRAHLLLNPY [P21L]", "protein stability index": 2.04}
{"SEQUENCE CODE": "ITQSWQVSVRVQPRCRAHLLPNPY [G15C]", "protein stability index": 1.97}
{"SEQUENCE CODE": "ITQSWQVSVRVQPRGRAHLLVNPY [P21V]", "protein stability index": 1.94}
{"SEQUENCE CODE": "ITQSWQVSVRVKPRGRAHLLPNPY [Q12K]", "protein stability index": 1.79}
{"SEQUENCE CODE": "ITQSWQVSDRVQPRGRAHLLPNPY [V9D]", "protein stability index": 2.02}

// Input: ITQSWQVSVRVQPRGRAHLLPNPQ [Y24Q] . Output its protein stability index only. 1.47

// Input: ITQSWQVMVRVQPRGRAHLLPNPY [S8M] . Output its protein stability index only. 2.55

// Input: ITQSWQVSVRVQPRGRAHLIPNPY [L20I] . Output its protein stability index only. 2.29

// Input: ITQSWQVSVRVQPRGRAHQLPNPY [L19Q] . Output its protein stability index only. 1.93

// Input: ITQSWQNSVRVQPRGRAHLLPNPY [V7N] . Output its protein stability index only. 2.38

// Input: ITQSWQVSVWVQPRGRAHLLPNPY [R10W] . Output its protein stability index only. 2.02

// Input: ITQSWQVSVRVQPRGRAHLLPTPY [N22T] . Output its protein stability index only. 1.89

// Input: IAQSWQVSVRVQPRGRAHLLPNPY [T2A] . Output its protein stability index only. 1.43

// Input: GTQSWQVSVRVQPRGRAHLLPNPY [I1G] . Output its protein stability index only. 1.92

// Input: ITQSWQVSVRVQPRGRAHVLPNPY [L19V] . Output its protein stability index only. 1.6

// Input: IWQSWQVSVRVQPRGRAHLLPNPY [T2W] . Output its protein stability index only. 2.62

// Input: ITQSWQVSVRVQPRGRSHLLPNPY [A17S] . Output its protein stability index only. 2.46

// Input: ITQSWQVSVRVQPRGRAHLLPNSY [P23S] . Output its protein stability index only. 1.92

// Input: ITQSWQVSVRVQPRGRAHLLPNPP [Y24P] . Output its protein stability index only. 1.15

// Input: ITQSWQVSVRVQPRGRAHDLPNPY [L19D] . Output its protein stability index only. 1.82

// Input: ITQSWQVSVRVQPRGRAHLLPHPY [N22H] . Output its protein stability index only. 1.75

// Input: ITQSWQVSVRVQSRGRAHLLPNPY [P13S] . Output its protein stability index only. 2.67

// Input: ITQSWQRSVRVQPRGRAHLLPNPY [V7R] . Output its protein stability index only. 2.39
